ASSAY TARGET: T1, Caspase-3 (UniProt P42574 29-277)
T1 sequence (looked up): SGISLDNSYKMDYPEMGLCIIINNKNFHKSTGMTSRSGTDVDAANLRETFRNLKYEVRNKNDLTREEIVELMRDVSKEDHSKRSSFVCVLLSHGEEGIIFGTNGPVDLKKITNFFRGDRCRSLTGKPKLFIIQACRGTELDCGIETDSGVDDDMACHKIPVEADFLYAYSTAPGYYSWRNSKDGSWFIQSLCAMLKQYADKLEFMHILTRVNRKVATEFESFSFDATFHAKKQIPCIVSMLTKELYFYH
ASSAY EXPLANATION: cell-based or functional assay
Numbered stars: 1 amine (or outer) side, 2 acyl side, 3 side chain; on linkers, the order of the positions; unused ones are H or OH. Square brackets hold non-standard residues; d marks the D form. * marks the point of attachment. CH═CH‑CON(CH2Ph)2 = O=C(/C=C/*)N(Cc1ccccc1)Cc1ccccc1; CH═CH‑CON(CH3)CH2CH2Ph = CN(CCc1ccccc1)C(=O)/C=C/*; AAsp = aza-Asp, O=C(N(CC(=O)[*:3])N[*:1])[*:2]; Cbz = O=C(OCc1ccccc1)*
EXPERIMENTAL READOUT: k2 (M⁻¹ s⁻¹)

[[record]]
binder = "Cbz-LET[AAsp]-{CH═CH‑CON(CH3)CH2CH2Ph} (SMILES CC(C)C[C@H](NC(=O)OCc1ccccc1)C(=O)N[C@@H](CCC(=O)O)C(=O)N[C@H](C(=O)NN(CC(=O)O)C(=O)/C=C/C(=O)N(C)CCc1ccccc1)[C@@H](C)O) [Cbz-Leu-Glu-Thr-AAsp-CH═CH-CON(CH3)CH2CH2Ph]"
unit_abbreviation = "M⁻¹ s⁻¹"
measured_number = 2620

[[record]]
binder = "Cbz-DEV[AAsp]-{CH═CH‑CON(CH2-1-Napth)2} [Cbz-Asp-Glu-Val-AAsp-CH═CH-CON(CH2-1-Napth)2]"
unit_abbreviation = "M⁻¹ s⁻¹"
measured_number = "5.62e+06"

[[record]]
binder = "Cbz-DEV[AAsp]-{CH═CH‑CON(CH2Ph)2} (SMILES CC(C)[C@H](NC(=O)[C@H](CCC(=O)O)NC(=O)[C@H](CC(=O)O)NC(=O)OCc1ccccc1)C(=O)NN(CC(=O)O)C(=O)/C=C/C(=O)N(Cc1ccccc1)Cc1ccccc1) [Cbz-Asp-Glu-Val-AAsp-CH═CH-CON(CH2Ph)2]"
unit_abbreviation = "M⁻¹ s⁻¹"
measured_number = "3e+06"

[[record]]
binder = "Cbz-LET[AAsp]-{CH═CH‑CONHCH2‑4‑F‑Ph} [Cbz-Leu-Glu-Thr-AAsp-CH═CH-CONHCH2-4-F-Ph]"
unit_abbreviation = "M⁻¹ s⁻¹"
measured_number = 4490

[[record]]
binder = "Cbz-DEV[AAsp]-{CH═CH‑CONHCH2CH2Ph} [Cbz-Asp-Glu-Val-AAsp-CH═CH-CONHCH2CH2Ph]"
unit_abbreviation = "M⁻¹ s⁻¹"
measured_number = "1.95e+06"


[A] Cbz-LET[AAsp]-{CH═CH‑CONHPh} [Cbz-Leu-Glu-Thr-AAsp-CH═CH-CONHPh]
[B] Cbz-DEV[AAsp]-{CH═CH‑COPh} [Cbz-Asp-Glu-Val-AAsp-CH═CH-COPh]
[C] Cbz-DEV[AAsp]-{CH═CH‑CONHCH2‑4‑F‑Ph} [Cbz-Asp-Glu-Val-AAsp-CH═CH-CONHCH2-4-F-Ph]
Output the entries ranked by k2 from maximum down to minimum. In your reply, arrange the labels in the requested order. C, B, A
